Entry source: patent US10975119B2

Attribute: inhibition at 10 µM
# target-or-test-system: Caspase-1 (Homo sapiens)
# Construct: mixing the compounds with the respective active caspases; purchased BioVision K151-100
# Sequence (P29466 120-297 limits assumed): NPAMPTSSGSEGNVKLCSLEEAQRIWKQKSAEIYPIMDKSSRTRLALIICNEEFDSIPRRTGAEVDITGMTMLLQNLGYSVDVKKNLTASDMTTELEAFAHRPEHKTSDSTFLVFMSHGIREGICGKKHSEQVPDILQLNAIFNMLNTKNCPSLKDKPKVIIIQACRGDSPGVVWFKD
# Sequence (P29466 317-404 limits assumed): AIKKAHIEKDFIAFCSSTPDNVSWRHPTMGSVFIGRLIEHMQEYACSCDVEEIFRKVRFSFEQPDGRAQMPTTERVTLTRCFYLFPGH
# experiment-summary: Caspase-1 inhibitor screening assay (BioVision kit, YVAD-AFC)
# Assay type: biochemical
# conditions-used: read-out: % Inhibition at 10 uM Casp1

[
  {
    "compound": "CC(C)(C)[C@H](NC(=O)c1ccc2ncccc2n1)C(=O)N1CCCC1C(=O)N[C@H](/C=C/S(C)(=O)=O)CC(=O)O (stereo in doubt) [Compound 8]",
    "inhibition at 10 µM": "91%"
  },
  {
    "compound": "CS(=O)(=O)/C=C/[C@H](CC(=O)O)NC(=O)C1CCCN1C(=O)[C@@H](NC(=O)[C@H](CC(=O)O)NC(=O)OCc1ccccc1)C1CC1 (stereo in doubt) [Compound 28]",
    "inhibition at 10 µM": "49%"
  },
  {
    "compound": "CC(C)(C)[C@H](NC(=O)c1ccc2ncccc2c1)C(=O)N1CCCC1C(=O)N[C@H](/C=C/S(C)(=O)=O)CC(=O)O (stereo in doubt) [Compound 10]",
    "inhibition at 10 µM": "90%"
  }
]

---

# target-or-test-system: Caspase-1 (Homo sapiens)
# Construct: mixing the compounds with the respective active caspases; purchased BioVision K151-100
# experiment-summary: Caspase-1 inhibitor screening assay (BioVision kit, YVAD-AFC)
# Format: biochemical
# conditions-used: read-out: % Inhibition at 10 uM Casp1
readout-label: inhibition at 10 µM (%)

[
  {
    "compound": "CC(C)[C@H](NC(=O)c1ccc2ccccc2n1)C(=O)N[C@H](/C=C/S(C)(=O)=O)CC(=O)O [Compound 16]",
    "unit-of-measure": "%",
    "assay-value": 0
  },
  {
    "compound": "CC(C)(C)OC(=O)CC[C@H](NC(=O)OC(C)(C)C)C(=O)N[C@H](/C=C/S(C)(=O)=O)CC(=O)OC(C)(C)C [Compound 21]",
    "unit-of-measure": "%",
    "assay-value": 2
  },
  {
    "compound": "CS(=O)(=O)/C(Cl)=C/[C@@H](N)CC(=O)O [Compound 4]",
    "unit-of-measure": "%",
    "assay-value": 0
  },
  {
    "compound": "CC(C)[C@H](NC(=O)OCc1ccccc1)C(=O)N[C@H](/C=C(\\Cl)S(C)(=O)=O)CC(=O)O [Compound 2]",
    "unit-of-measure": "%",
    "assay-value": 0
  }
]

---

# target-or-test-system: Caspase-7 (Homo sapiens, UniProt P55210)
# Construct: mixing the compounds with the respective active caspases; purchased BioVision K157-100
# Sequence (P55210 24-198 limits assumed): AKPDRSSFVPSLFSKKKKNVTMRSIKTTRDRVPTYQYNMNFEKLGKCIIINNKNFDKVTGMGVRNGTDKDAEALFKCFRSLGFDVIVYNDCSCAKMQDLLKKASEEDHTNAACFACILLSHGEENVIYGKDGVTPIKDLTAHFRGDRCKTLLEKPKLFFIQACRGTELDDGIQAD
# Sequence (P55210 207-303 limits assumed): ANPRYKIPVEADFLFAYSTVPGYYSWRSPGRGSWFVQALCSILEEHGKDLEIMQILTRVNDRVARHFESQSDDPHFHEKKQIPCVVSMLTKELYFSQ
# experiment-summary: Caspase-7 inhibitor screening assay (BioVision kit, DEVD-AFC)
# Type: biochemical
# conditions-used: 100 uM; read-out: % Inhibition at 100 uM Casp7
# Source text: […]
// Condition not met strictly below 9% in inhibition at 100 µM; Condition met otherwise

[
  {
    "compound": "CS(=O)(=O)/C=C/[C@H](CC(=O)O)NC(=O)C1CCCN1C(=O)[C@@H](NC(=O)[C@H](CC(=O)O)NC(=O)OCc1ccccc1)C1CC1 (stereo in doubt)",
    "target-or-test-system": "Caspase-7 (Homo sapiens, UniProt P55210)",
    "group-label": "Condition met"
  },
  {
    "compound": "CCOC(=O)/C=C/[C@H](CC(=O)O)NC(=O)[C@@H](NC(=O)[C@@H](NC(=O)[C@H](CC(=O)O)NC(=O)OCc1ccccc1)c1ccccc1)C(C)C",
    "target-or-test-system": "Caspase-7 (Homo sapiens, UniProt P55210)",
    "group-label": "Condition met"
  },
  {
    "compound": "CC(C)[C@H](NC(=O)[C@@H](N)Cc1ccc(O)cc1)C(=O)N[C@@H](C)C(=O)N[C@H](/C=C/S(C)(=O)=O)CC(=O)O",
    "target-or-test-system": "Caspase-7 (Homo sapiens, UniProt P55210)",
    "group-label": "Condition not met"
  },
  {
    "compound": "CCOC(=O)/C=C/[C@H](CC(=O)O)NC(=O)[C@H]1CCCN1C(=O)[C@@H](NC(=O)c1ccc2ccccc2n1)C(C)(C)C",
    "target-or-test-system": "Caspase-7 (Homo sapiens, UniProt P55210)",
    "group-label": "Condition not met"
  },
  {
    "compound": "CC(C)(C)OC(=O)CC[C@H](NC(=O)OC(C)(C)C)C(=O)N[C@H](/C=C/S(C)(=O)=O)CC(=O)OC(C)(C)C",
    "target-or-test-system": "Caspase-7 (Homo sapiens, UniProt P55210)",
    "group-label": "Condition not met"
  },
  {
    "compound": "CC(C)[C@H](NC(=O)[C@H](Cc1cn(C)c2ccccc12)NC(=O)[C@H](CC(=O)O)NC(=O)OCc1ccccc1)C(=O)N[C@H](/C=C/S(C)(=O)=O)CC(=O)O",
    "target-or-test-system": "Caspase-7 (Homo sapiens, UniProt P55210)",
    "group-label": "Condition met"
  },
  {
    "compound": "CC(C)(C)[C@H](NC(=O)c1ccc2ncccc2c1)C(=O)N1CCCC1C(=O)N[C@H](/C=C/S(C)(=O)=O)CC(=O)O (stereo in doubt)",
    "target-or-test-system": "Caspase-7 (Homo sapiens, UniProt P55210)",
    "group-label": "Condition met"
  }
]
